test: in vivo; conditions: mouse, iv
value-type: half-life

### Prompt Return half-life (reported value) for this molecule: "CC1(C)CC(O)CC(C)(C)N1[O]"
### Response ~2 min

====

assay: in vivo; conditions: C57, mouse, iv
value-type: half-life

### Prompt Return half-life (reported value) for this molecule: "CC1(C)CC(O)CC(C)(C)N1[O]"
### Response ~50 s

====

assay: EPR signal of ^15N-TEMPOL in isolated ischemic rat heart; conditions: 2 mM TPL, read-out: half-life of EPR signal, first phase of double-exponential fit
value-type: half-life at 2 mM (s)
Use s as the unit, but write only the number.

### Prompt Return half-life at 2 mM (reported value) for this molecule: "CC1(C)CC(O)CC(C)(C)N1[O]"
### Response 24
